B1: HDV Ribozyme (parent)
chain: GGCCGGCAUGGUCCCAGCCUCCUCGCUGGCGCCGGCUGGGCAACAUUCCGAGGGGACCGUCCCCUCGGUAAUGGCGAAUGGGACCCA

# Variants of: B1
# METHOD: self-cleavage, relative activity (ratio to wild type); higher = more cleavage; co-transcriptional
VALUE KIND: self-cleavage

{"MUTATIONS": "U23C G40A", "VALUE KIND": "self-cleavage", "OBS VALUE": 0.8}
{"MUTATIONS": "G55U A87U", "VALUE KIND": "self-cleavage", "OBS VALUE": 1.1}
{"MUTATIONS": "G55A A78U", "VALUE KIND": "self-cleavage", "OBS VALUE": 0.201}
{"MUTATIONS": "U23A C33G", "VALUE KIND": "self-cleavage", "OBS VALUE": 0.35}
{"MUTATIONS": "C14G U72G", "VALUE KIND": "self-cleavage", "OBS VALUE": 0.312}
{"MUTATIONS": "C19G C64G", "VALUE KIND": "self-cleavage", "OBS VALUE": 0.113}
{"MUTATIONS": "C18U C41G", "VALUE KIND": "self-cleavage", "OBS VALUE": 0.0314}
{"MUTATIONS": "G74U A87C", "VALUE KIND": "self-cleavage", "OBS VALUE": 0.554}
{"MUTATIONS": "G54U G76C", "VALUE KIND": "self-cleavage", "OBS VALUE": 0.73}
{"MUTATIONS": "C7A C14G", "VALUE KIND": "self-cleavage", "OBS VALUE": 0}
{"MUTATIONS": "C64G U65C", "VALUE KIND": "self-cleavage", "OBS VALUE": 0.199}
{"MUTATIONS": "A77U G80A", "VALUE KIND": "self-cleavage", "OBS VALUE": 0.0923}
{"MUTATIONS": "U60A U69A", "VALUE KIND": "self-cleavage", "OBS VALUE": 0.793}
{"MUTATIONS": "C63U U65A", "VALUE KIND": "self-cleavage", "OBS VALUE": 0.849}
{"MUTATIONS": "G38C G54A", "VALUE KIND": "self-cleavage", "OBS VALUE": 0.132}
{"MUTATIONS": "C36G G82C", "VALUE KIND": "self-cleavage", "OBS VALUE": 0.141}
{"MUTATIONS": "G5U C36U", "VALUE KIND": "self-cleavage", "OBS VALUE": 0.104}
{"MUTATIONS": "C26U C48A", "VALUE KIND": "self-cleavage", "OBS VALUE": 0.917}
{"MUTATIONS": "G29C A71C", "VALUE KIND": "self-cleavage", "OBS VALUE": 0.0536}
{"MUTATIONS": "G17A C26A", "VALUE KIND": "self-cleavage", "OBS VALUE": 0.798}
{"MUTATIONS": "C18A", "VALUE KIND": "self-cleavage", "OBS VALUE": 0.145}
{"MUTATIONS": "G35U C63A", "VALUE KIND": "self-cleavage", "OBS VALUE": 0.389}
{"MUTATIONS": "U9G A16G", "VALUE KIND": "self-cleavage", "OBS VALUE": 1.42}
{"MUTATIONS": "G10C C48A", "VALUE KIND": "self-cleavage", "OBS VALUE": 0.853}
{"MUTATIONS": "G50A G76C", "VALUE KIND": "self-cleavage", "OBS VALUE": 0.98}
{"MUTATIONS": "C19G U79C", "VALUE KIND": "self-cleavage", "OBS VALUE": 0.0264}
{"MUTATIONS": "G1U C64U", "VALUE KIND": "self-cleavage", "OBS VALUE": 0.451}
{"MUTATIONS": "C26G C64A", "VALUE KIND": "self-cleavage", "OBS VALUE": 0.554}
{"MUTATIONS": "C21G C84A", "VALUE KIND": "self-cleavage", "OBS VALUE": 0.138}
{"MUTATIONS": "G31A G35A", "VALUE KIND": "self-cleavage", "OBS VALUE": 0.0455}
{"MUTATIONS": "C14G A70C", "VALUE KIND": "self-cleavage", "OBS VALUE": 0.185}
{"MUTATIONS": "C63U G80C", "VALUE KIND": "self-cleavage", "OBS VALUE": 0.218}
{"MUTATIONS": "G6U C36G", "VALUE KIND": "self-cleavage", "OBS VALUE": 0}
{"MUTATIONS": "C63G A77U", "VALUE KIND": "self-cleavage", "OBS VALUE": 0.277}
{"MUTATIONS": "G2U G67U", "VALUE KIND": "self-cleavage", "OBS VALUE": 0.0563}
{"MUTATIONS": "G80A A87C", "VALUE KIND": "self-cleavage", "OBS VALUE": 0.33}
{"MUTATIONS": "C3G C84U", "VALUE KIND": "self-cleavage", "OBS VALUE": 0.736}
{"MUTATIONS": "C63A C66U", "VALUE KIND": "self-cleavage", "OBS VALUE": 0.814}
{"MUTATIONS": "C18A C22G", "VALUE KIND": "self-cleavage", "OBS VALUE": 0.0811}
{"MUTATIONS": "A42U C62A", "VALUE KIND": "self-cleavage", "OBS VALUE": 0.618}
{"MUTATIONS": "G6C U46G", "VALUE KIND": "self-cleavage", "OBS VALUE": 0}
{"MUTATIONS": "C14G A45G", "VALUE KIND": "self-cleavage", "OBS VALUE": 0.0875}
{"MUTATIONS": "G50A G59A", "VALUE KIND": "self-cleavage", "OBS VALUE": 1.03}
{"MUTATIONS": "C30G G68U", "VALUE KIND": "self-cleavage", "OBS VALUE": 0.0228}
{"MUTATIONS": "C21U G82C", "VALUE KIND": "self-cleavage", "OBS VALUE": 0.181}
{"MUTATIONS": "G28C A83G", "VALUE KIND": "self-cleavage", "OBS VALUE": 0.0542}
{"MUTATIONS": "C15U G53U", "VALUE KIND": "self-cleavage", "OBS VALUE": 0.767}
{"MUTATIONS": "G81U C85A", "VALUE KIND": "self-cleavage", "OBS VALUE": 0.389}
{"MUTATIONS": "A43U G52A", "VALUE KIND": "self-cleavage", "OBS VALUE": 0.561}
{"MUTATIONS": "G25C G38A", "VALUE KIND": "self-cleavage", "OBS VALUE": 0.259}
{"MUTATIONS": "C13A C33A", "VALUE KIND": "self-cleavage", "OBS VALUE": 0.0396}
{"MUTATIONS": "C44U G68U", "VALUE KIND": "self-cleavage", "OBS VALUE": 0.607}
{"MUTATIONS": "A8C G54C", "VALUE KIND": "self-cleavage", "OBS VALUE": 0.746}
{"MUTATIONS": "G17A C61U", "VALUE KIND": "self-cleavage", "OBS VALUE": 0.904}
{"MUTATIONS": "G10C A56C", "VALUE KIND": "self-cleavage", "OBS VALUE": 0.978}
{"MUTATIONS": "G34U G74C", "VALUE KIND": "self-cleavage", "OBS VALUE": 0.138}
{"MUTATIONS": "U65C A70C", "VALUE KIND": "self-cleavage", "OBS VALUE": 1.17}
{"MUTATIONS": "C36U C75G", "VALUE KIND": "self-cleavage", "OBS VALUE": 0.0959}
{"MUTATIONS": "C14G C85A", "VALUE KIND": "self-cleavage", "OBS VALUE": 0.166}
{"MUTATIONS": "U12A A71U", "VALUE KIND": "self-cleavage", "OBS VALUE": 0.262}
{"MUTATIONS": "U9G G10U", "VALUE KIND": "self-cleavage", "OBS VALUE": 0.987}
{"MUTATIONS": "A70G G73U", "VALUE KIND": "self-cleavage", "OBS VALUE": 0.138}
{"MUTATIONS": "G2A U79A", "VALUE KIND": "self-cleavage", "OBS VALUE": 0.0225}
{"MUTATIONS": "C14G A71C", "VALUE KIND": "self-cleavage", "OBS VALUE": 0.208}
{"MUTATIONS": "U46G A87G", "VALUE KIND": "self-cleavage", "OBS VALUE": 0.724}
{"MUTATIONS": "C19U C36A", "VALUE KIND": "self-cleavage", "OBS VALUE": 0.0639}
{"MUTATIONS": "G50C C57A", "VALUE KIND": "self-cleavage", "OBS VALUE": 1.04}
{"MUTATIONS": "U27C C33G", "VALUE KIND": "self-cleavage", "OBS VALUE": 0.237}
{"MUTATIONS": "C44G U46G", "VALUE KIND": "self-cleavage", "OBS VALUE": 0.609}
{"MUTATIONS": "C63A A78U", "VALUE KIND": "self-cleavage", "OBS VALUE": 0.269}
{"MUTATIONS": "C4G U23A", "VALUE KIND": "self-cleavage", "OBS VALUE": 0.47}
{"MUTATIONS": "G53C G67U", "VALUE KIND": "self-cleavage", "OBS VALUE": 0.631}
{"MUTATIONS": "C21U G59U", "VALUE KIND": "self-cleavage", "OBS VALUE": 0.288}
{"MUTATIONS": "G5A G67C", "VALUE KIND": "self-cleavage", "OBS VALUE": 0.162}
{"MUTATIONS": "C18A U69G", "VALUE KIND": "self-cleavage", "OBS VALUE": 0.232}
{"MUTATIONS": "G40C G59A", "VALUE KIND": "self-cleavage", "OBS VALUE": 0.179}
{"MUTATIONS": "G67U U69C", "VALUE KIND": "self-cleavage", "OBS VALUE": 0.906}
{"MUTATIONS": "G68C G76C", "VALUE KIND": "self-cleavage", "OBS VALUE": 1.03}
{"MUTATIONS": "A56G G81A", "VALUE KIND": "self-cleavage", "OBS VALUE": 0.665}
{"MUTATIONS": "U65A U69C", "VALUE KIND": "self-cleavage", "OBS VALUE": 0.782}
{"MUTATIONS": "G2A G31A", "VALUE KIND": "self-cleavage", "OBS VALUE": 0.0729}
{"MUTATIONS": "G29U G82U", "VALUE KIND": "self-cleavage", "OBS VALUE": 0.095}
{"MUTATIONS": "U47G G82U", "VALUE KIND": "self-cleavage", "OBS VALUE": 0.123}
{"MUTATIONS": "A78G C85G", "VALUE KIND": "self-cleavage", "OBS VALUE": 0.539}
{"MUTATIONS": "U12G G53U", "VALUE KIND": "self-cleavage", "OBS VALUE": 1.01}
{"MUTATIONS": "G10C A51G", "VALUE KIND": "self-cleavage", "OBS VALUE": 0.72}
{"MUTATIONS": "C15U G50C", "VALUE KIND": "self-cleavage", "OBS VALUE": 0.831}
{"MUTATIONS": "A70G C75A", "VALUE KIND": "self-cleavage", "OBS VALUE": 0.201}
{"MUTATIONS": "G29C G50U", "VALUE KIND": "self-cleavage", "OBS VALUE": 0}
{"MUTATIONS": "U47G G81U", "VALUE KIND": "self-cleavage", "OBS VALUE": 0.214}
{"MUTATIONS": "A8C G52A", "VALUE KIND": "self-cleavage", "OBS VALUE": 0.831}
